# study.target: T1, Full-length human NT5E (recombinant, in-house) (human, UniProt P21589 27-549)
# T1 construct: also called hNT5E; hNT5EWT
# T1 sequence: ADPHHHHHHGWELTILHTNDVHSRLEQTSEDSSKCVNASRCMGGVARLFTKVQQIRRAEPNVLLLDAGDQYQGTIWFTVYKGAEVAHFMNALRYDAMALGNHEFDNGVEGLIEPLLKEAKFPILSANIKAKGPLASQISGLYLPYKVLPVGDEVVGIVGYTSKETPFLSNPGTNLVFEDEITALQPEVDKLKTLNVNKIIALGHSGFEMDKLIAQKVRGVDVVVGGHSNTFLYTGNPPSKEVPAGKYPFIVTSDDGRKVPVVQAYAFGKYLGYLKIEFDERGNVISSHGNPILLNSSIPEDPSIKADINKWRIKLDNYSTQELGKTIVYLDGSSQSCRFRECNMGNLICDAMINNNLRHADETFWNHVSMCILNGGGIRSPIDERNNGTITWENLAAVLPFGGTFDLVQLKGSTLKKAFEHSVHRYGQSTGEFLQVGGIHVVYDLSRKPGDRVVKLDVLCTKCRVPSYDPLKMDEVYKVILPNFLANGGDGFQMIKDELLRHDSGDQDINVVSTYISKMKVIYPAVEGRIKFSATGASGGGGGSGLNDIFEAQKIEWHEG
# experimental.details: SPR, His-captured NT5E, 1 mM ATP
outcome.measure: Kd (nM)
Give just the number in nM; leave the unit off.

Check out these entries, answers already filled in.
{"columns": ["binder", "outcome.measure", "val"],
 "data": [
  ["1789 AM39 Fab (Fab, V domains shown) VH: EVQLVESGGGLVQPGGSLRLSCAASGFNVSYSSIHWVRQAPGKGLEWVASIRGAGSDTRYADSVKGRFTISADTSKNTAYLQMNSLRAEDTAVYYCARNYWGWYPFYYFAFDYWGQGTLVTV VL: DIQMTQSPSSLSASVGDRVTITCRASQSVSSAVAWYQQKPGKAPKLLIYSASSLYSGVPSRFSGSRSGTDFTLTISSLQPEDFATYYCQQGWDYPITFGQGTKVEIKR", "Kd", 7.9],
  ["1789 AM42 Fab (Fab, V domains shown) VH: EVQLVESGGGLVQPGGSLRLSCAASGFNVSYSSIHWVRQAPGKGLEWVAKIRGGHQDTHYADSVKGRFTISADTSKNTAYLQMNSLRAEDTAVYYCARNYWGWYPFYYFAFDYWGQGTLVTV VL: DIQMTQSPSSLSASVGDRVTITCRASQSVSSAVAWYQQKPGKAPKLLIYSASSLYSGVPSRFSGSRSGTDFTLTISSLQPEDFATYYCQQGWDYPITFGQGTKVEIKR", "Kd", 11]
]}

Data request: // Kd lookup, key: 1789 Fab (Fab, V domains shown) VH: EVQLVESGGGLVQPGGSLRLSCAASGFNVSYSSIHWVRQAPGKGLEWVASISSSSGYTYYADSVKGRFTISADTSKNTAYLQMNSLRAEDTAVYYCARNYWGWYPFYYFAFDYWGQGTLVTV VL: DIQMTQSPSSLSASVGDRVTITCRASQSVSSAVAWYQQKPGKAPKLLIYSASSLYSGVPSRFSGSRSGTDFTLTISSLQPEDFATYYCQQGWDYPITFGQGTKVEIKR
Data returned: 42
